This collection of values is drawn from ChEMBL document CHEMBL1149678.

Recorded IC50 by entry
testTarget: Retinoic acid receptor RXR-alpha (Homo sapiens)
Sequence (P19793 whole entry): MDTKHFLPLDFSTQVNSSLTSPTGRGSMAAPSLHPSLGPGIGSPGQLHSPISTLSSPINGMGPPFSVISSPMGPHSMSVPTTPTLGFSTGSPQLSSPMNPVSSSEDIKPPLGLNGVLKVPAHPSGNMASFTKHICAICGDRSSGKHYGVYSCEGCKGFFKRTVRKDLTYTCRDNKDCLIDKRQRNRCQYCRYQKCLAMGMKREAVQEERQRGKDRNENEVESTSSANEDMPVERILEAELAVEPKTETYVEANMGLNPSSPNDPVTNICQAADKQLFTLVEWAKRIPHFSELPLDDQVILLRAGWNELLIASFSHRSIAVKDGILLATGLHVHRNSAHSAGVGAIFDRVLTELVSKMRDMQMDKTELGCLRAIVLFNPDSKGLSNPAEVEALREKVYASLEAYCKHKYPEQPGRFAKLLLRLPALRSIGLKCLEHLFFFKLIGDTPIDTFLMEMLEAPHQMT
methodSummary: Antagonist activity at human RXRalpha expressed in […] cells assessed as inhibition of LG-100268-induced transactivation
Format: functional, cell-based, HEK293
parameterMeasured: IC50

smi=CN1c2ccc(NC(=O)c3ccc(F)cc3)cc2N=C(c2ccc(C(=O)O)cc2)c2cc3c(cc21)C(C)(C)CCC3(C)C resultvalue="1.6 µM"
smi=Cc1ccc(S(=O)(=O)Nc2ccc3c(c2)N=C(c2ccc(C(=O)O)cc2)c2cc4c(cc2N3C)C(C)(C)CCC4(C)C)cc1 resultvalue="2.5 µM"
smi=CCCCNc1ccc2c(c1)N=C(c1ccc(C(=O)O)cc1)c1cc3c(cc1N2C)C(C)(C)CCC3(C)C resultvalue="> 100 µM"
smi=CCCCS(=O)(=O)Nc1ccc2c(c1)N=C(c1ccc(C(=O)O)cc1)c1cc3c(cc1N2C)C(C)(C)CCC3(C)C resultvalue="0.91 µM"
smi=CN1c2ccc(NS(=O)(=O)c3cc(C(F)(F)F)cc(C(F)(F)F)c3)cc2N=C(c2ccc(C(=O)O)cc2)c2cc3c(cc21)C(C)(C)CCC3(C)C resultvalue="4.1 µM"
smi=CN1c2ccc(NS(=O)(=O)c3cccc4ccccc34)cc2N=C(c2ccc(C(=O)O)cc2)c2cc3c(cc21)C(C)(C)CCC3(C)C resultvalue="3.4 µM"
smi=CN1c2ccc(NS(=O)(=O)Cc3ccccc3)cc2N=C(c2ccc(C(=O)O)cc2)c2cc3c(cc21)C(C)(C)CCC3(C)C resultvalue="5.2 µM"
smi=CNc1ccc2c(c1)N=C(c1ccc(C(=O)O)cc1)c1cc3c(cc1N2C)C(C)(C)CCC3(C)C resultvalue="> 100 µM"
